- System: MS2 coat protein
- Test details: apparent KD of MS2 coat protein; designed switch direction (-1 OFF switch, 1 ON switch): -1; higher = weaker reporter binding
- Experimental context: input ligand: none
Output: class label from apparent KD of MS2 coat protein. Mapping: I (below 50 nM), II (50 nM to below 90 nM), III (90 nM or more)

Sequence	Class assignment
ACAUGAGGAUCACCCAUGUCCGGCUGGUCCGUUUCGGCUGUCGAGGAUAUAGUUCGGUGUCCGCGCUAGAAGGCGGGAGCCGGC [Aenatbe mod 62] (Eterna round: R96, puzzle: Exclusion NG 3)	III
AAUUAAUAUCAGGAUAUGACGUGCGAUAGCACGUCAGAAGGGAUGACAUGAGGAUCACCCAUGUGAUCAAUUAA [E6/1-A4] (Eterna round: R97, puzzle: Exclusion 6)	I
AGUACUAUCACGAAAGUGAUAGUACAACGAGCUUGUGAAACAUGAGGAUCACCCAUGUCCUCAUGAGUUCGUCUUAU [JL turnoff v2 67] (Eterna round: R96, puzzle: Sensor v2, turn-off variant 2)	I
UAUUAUCAAGCUUGAUCCCACAUGAGGAUCACCCAUGUGCUCGUCUUAUUUCUGUCCUUAUUGUUCUCUCGUCUAAU [JR_STOV1_v2_Sub097] (Eterna round: R97, puzzle: Sensor, turn-off variant 1)	III
AAGGGUGCUUUUAGAACGACAUGAGGAUCACCCAUGUAGACUGAGGAUAUCUACUCCUAAGGACCGGAGAAGGCAGUGUAAUGC [Ex NG3 #64] (Eterna round: R96, puzzle: Exclusion NG 3)	II
CCCACAAGCUUUUUGCUCGACAUGAGGAUCACCCAUGUUGAAUGGGUUAUAUGUGUGUGAUACAUAUAUAUGUACCU [-24.7, -47.9 kcal, A 26%] (Eterna round: R97, puzzle: Sensor, turn-off variant 1)	I
UAUAGGCUAGGAUAUACAACACUUGGUUCGAAUGUUUGGAGACAUGAGGAUCACCCAUGUAGAAGGAGCAUUUC [Leleis] (Eterna round: R96, puzzle: Exclusion 2)	II
AUAAUGUCAGGAUAUCAGUCGACUAGCUUCGGCUAGUCGACUGAGAAGGGACAUGAGGAUCACCCAUGUGUUUC [E4/14-A1] (Eterna round: R97, puzzle: Exclusion 4)	III
AAGAACGUCGGAGGAUAUCCAGCCAAGCCCGCAGGAGAAGGCCGGCGGUGGGAUGUGCUUCACAUGAGGAUCACCCAUGUUAAU [Onriti] (Eterna round: R96, puzzle: Exclusion NG 1)	III
GAGAACUGAGGAUAUACAUGAGGAUCACCCAUGUGAAGAAGAAAGUAGUGAUGGUUGGGUAGAAGGCAGAGAGA [JR_Ex3_Sub065] (Eterna round: R97, puzzle: Exclusion 3)	I

====

- System: MS2 coat protein
- Test details: apparent KD of MS2 coat protein; designed switch direction (-1 OFF switch, 1 ON switch): 1; higher = weaker reporter binding
- Experimental context: Eterna round: R95; input ligand: none
Binary classification by apparent KD of MS2 coat protein, with 30 nM as an inclusive lower bound for fulfilled; all other cases are not fulfilled.

Sequence	Measured target	Class assignment
AACGUGGGCUAGCAGGAUAUACUGCGAGUAACAUGAGGAUCACCCAUGUUGUCCCGCAAGACAAUGUAGAAGGGCUGAUACCGCG [Atatlaor] (puzzle: Same State 2)	MS2 coat protein	not fulfilled
AGUCCAGCCUGAGCUGGACAAAAGCAUGUACAUGAGGAUCACCCAUGUUCAUGUACAAGCUUUUUGCAAGUCAAAAG [Mat - hsa-mir-208a - Mod of JL - 75] (puzzle: Sensor for hsa-mir-208a)	MS2 coat protein	fulfilled
UUUUUUUUUUCGAGACAAGCUUUUUGAUCACAUGAGGAUCACCCAUGUCUCGUCUUAUUUUUUUUUUUUUUUUUUUU [BA Sensor hsa-mir-208a - 2 - 1] (puzzle: Sensor for hsa-mir-208a)	MS2 coat protein	not fulfilled
UCUUGGUUUUUGCUCGUUUUUUGUGUUGAACAUGAGGAUCACCCAUGUAUUGUACGGUCCGAUUUAAUGAUGGUCCA [JMF 39] (puzzle: Sensor for hsa-mir-208a)	MS2 coat protein	fulfilled
AGUCCAGCCUGAGCUGGACAAAAGUAUGUACAUGAGGAUCACCCAUGUCAUGUACAAGCUUUUUGCUCGUCUUAAAA [Zipper 46 - 14] (puzzle: Sensor for hsa-mir-208a)	MS2 coat protein	fulfilled

====

- Tested on: MS2 coat protein
- Test details: apparent KD of MS2 coat protein; designed switch direction (-1 OFF switch, 1 ON switch): -1; higher = weaker reporter binding
- Experimental context: input ligand: none
Property: apparent KD of MS2 coat protein; scope: individual sequences

Sequence	Measured target	apparent KD of MS2 coat protein (nM)
UUAAAUCAUGUAGGAUAUGCGUGGCGAAGCUAUGCAGAAGGACAUGAGGAUCACCCAUGUGCUUCCGUCUGCGUACAGACGGUA [JL ENG1 1.14] (Eterna round: R96, puzzle: Exclusion NG 1)	MS2 coat protein	91.2
ACUGGAUGCAAGCAGGUCCACAUGAGGAUCACCCAUGUUCGUCGGCCAGCAUCGGCUUCUACCGCAAGCCGCGUGCA [Eternabot (L1) Solution 27] (Eterna round: R97, puzzle: Sensor, turn-off variant 1)	MS2 coat protein	18.8
CCAUGGGAGCGAGGAUAUAGCCCAUGGGAAGAACUAGAAGGCGCAGACAUGAGGAUCACCCAUGUGUUCAUGAGGAGGUGGACA (Eterna round: R96, puzzle: Exclusion NG 1)	MS2 coat protein	121
AAUAACAAGCCGAUCCUUAACAUGAGGAUCACCCAUGUGCUCGUCUUGUAAAGUACUAUCACGAAAGUGAUAGUACA (Eterna round: R97, puzzle: Sensor, turn-off variant 1)	MS2 coat protein	22.7
GCUAGGAGUGUGAGGAUAUGCAGUUCCUUGGAACUGCAGAAGGCACAUGAGGAUCACCCAUGUGAAGACCUAGC [Mat - Exclusion 4 - JL Mod - D4] (Eterna round: R97, puzzle: Brourd's mod of Exclusion 4)	MS2 coat protein	26.6
AGCAGACGAGGAUAUGAUUAAUAAUACAUGAGGAUCACCCAUGUAAUACUGAUCUAUGGAUCAGAAGGCGUCUGCU [E5/6-A2] (Eterna round: R97, puzzle: Exclusion 5)	MS2 coat protein	16.6
UAUGGUAAAGUCAGGAUAUACGUGCAGUUUUCUAGGUAGAAGGGACAUGAGGAUCACCCAUGUAUGGUAGUGUU [Ex4 #46] (Eterna round: R97, puzzle: Brourd's mod of Exclusion 4)	MS2 coat protein	83.5
GUUCCGCGAGGAUAUACAGACGGGUCCAAAACGUGUCUCGGACUUGAGGAUCACCCAAGUAGAAGGCGUUUCAG [salish99_ex2_r4_622] (Eterna round: R97, puzzle: Exclusion 2)	MS2 coat protein	22.1
GCUUUUGGGCAAGGAUAUCCUGCGCGGUUCCGGUUCGUGUCUGUCACAUGAGGAUCACCCAUGUGGGAGAAGGUGCCUGCGGUG [Design 73] (Eterna round: R96, puzzle: Exclusion NG 2)	MS2 coat protein	19

====

- Tested on: K4 kissing-loop RNA reporter;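 note: bound reporter read as fluorescence of individual clusters on recovered sequencing chips by microscopy, with normalized cluster intensities fitted with a binding model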
- Test details: apparent KD of K4 kissing-loop reporter; higher = weaker reporter binding
- Experimental context: Eterna round: R107; input ligand: FMN 200 uM
Attribute measured: apparent KD of K4 kissing-loop reporter

Sequence	Measured target	Attribute measured	Assay value
CCAGGACGAUGAGGAGGAUGAAUUACUGAAGGAGCGCAUAUGGUUGCAGGUAGGUCGCGGUGAACAAGUAUAGUGAUGUUAUAUC [SSArgA.S]	K4 kissing-loop RNA reporter	apparent KD of K4 kissing-loop reporter	365 nM
CAGCCCAAAUGGCGAGAAGUGUUCCUUAGUCGAGGACCGGUACGGCCGCCACUCGCUCUAAACAUUAGGAGUGAUGUUCCAUUAG	K4 kissing-loop RNA reporter	apparent KD of K4 kissing-loop reporter	168 nM
UCGAAGGAUGGAAGGAGCGCUCGUCAGUCCUGCGAGUGAUGUUCGUGGGUAAAUAUUCGCGAGCAGGUAGGUCGCCAUCUCGAAC [Erbemaa]	K4 kissing-loop RNA reporter	apparent KD of K4 kissing-loop reporter	149 nM
AAGUGAUGUUGUAGUGAUGUUGUGAUGUUGCAGGAUAUAUAGUGAUGUAGAAGGGUAUGUACUUAUUUUUUUUUUGAGUUAUGUU [wzzwzrmullin]	K4 kissing-loop RNA reporter	apparent KD of K4 kissing-loop reporter	79.5 nM
GUCCCGAGUGAUGUUCGGGUCGUUCGGGAAGGAGCGCCCGCAAGGGCAGGUAGGUCGCCCGGAUCUCUCAGGUAACUGAGAGACC [#2 Same State - Arginine A Attempt #28 (HarryS)]	K4 kissing-loop RNA reporter	apparent KD of K4 kissing-loop reporter	553 nM
AGUCCACUCUAAAGAGUGGACCUAAGGGAUACCAGUGAUGUUGGUCACCCUUGGCAGCCCGCUGUCAUCGAUAAAGAUGGCAGAA	K4 kissing-loop RNA reporter	apparent KD of K4 kissing-loop reporter	136 nM
